target: Rat recombinant PDE10A (rPDE10A2) (Rattus norvegicus); construct: made in house; host or cells: Sf9 insect cells (baculovirus); experiment: In vitro assay PDE10A (SPA, 3H-cAMP); assay type: biochemical
MEASUREMENT_NAME: pIC50
Interpret pIC50 as the negative base-10 log of the concentration measured in mol/L.

**Q:** Short answer please: pIC50, Rat recombinant PDE10A (rPDE10A2) (Rattus norvegicus), entry Cc1nc2ccc(CN3CCOC(CO)C3)cc2n2c(-c3ccccc3Cl)nnc12 (stereo not shown) [Compound B-55]
**A:** 7.97

###

Give IC50 for every item shown.
molecular target: Human recombinant PDE2A (hPDE2A) (Homo sapiens); construct: made in house; host or cells: Sf9 insect cells (baculovirus); assay: In vitro assay PDE2A (SPA, 3H-cGMP); assay type: biochemical; conditions: read-out: pIC50 PDE2 (converted)
Sequence (O00408 whole entry): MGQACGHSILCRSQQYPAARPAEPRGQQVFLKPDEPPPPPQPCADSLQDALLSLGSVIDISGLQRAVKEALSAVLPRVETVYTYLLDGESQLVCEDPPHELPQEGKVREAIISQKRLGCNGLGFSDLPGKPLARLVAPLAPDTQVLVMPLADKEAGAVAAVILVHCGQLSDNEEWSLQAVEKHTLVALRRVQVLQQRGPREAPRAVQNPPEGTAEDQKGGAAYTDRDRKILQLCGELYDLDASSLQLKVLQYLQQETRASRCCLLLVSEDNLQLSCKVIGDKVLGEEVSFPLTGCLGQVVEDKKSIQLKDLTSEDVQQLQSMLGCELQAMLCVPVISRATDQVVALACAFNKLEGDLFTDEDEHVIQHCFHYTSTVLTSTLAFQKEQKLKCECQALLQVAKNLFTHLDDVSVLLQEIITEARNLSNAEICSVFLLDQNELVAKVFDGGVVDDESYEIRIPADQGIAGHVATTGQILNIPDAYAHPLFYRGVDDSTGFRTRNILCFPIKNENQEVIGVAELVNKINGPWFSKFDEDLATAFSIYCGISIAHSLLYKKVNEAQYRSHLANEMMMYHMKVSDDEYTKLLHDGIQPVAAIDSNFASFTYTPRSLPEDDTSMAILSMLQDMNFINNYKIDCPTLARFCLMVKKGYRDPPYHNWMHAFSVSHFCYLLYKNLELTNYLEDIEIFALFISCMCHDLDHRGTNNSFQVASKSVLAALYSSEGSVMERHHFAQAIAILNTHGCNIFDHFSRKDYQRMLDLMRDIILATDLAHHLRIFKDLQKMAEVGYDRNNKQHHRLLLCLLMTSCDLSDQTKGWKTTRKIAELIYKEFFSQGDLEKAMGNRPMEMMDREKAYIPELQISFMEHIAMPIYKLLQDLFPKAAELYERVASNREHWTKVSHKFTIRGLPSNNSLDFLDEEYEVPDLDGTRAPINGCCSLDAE
I only need the number, in nM, no unit after it.

**Q:** What does the data say about its IC50? Entry: CCOCc1cncc(-c2nnc3c(C)nc4ccc(CNC5CCC5)cc4n23)c1 [Compound B-213]
**A:** 372

**Q:** What does the data say about its IC50? Entry: Cc1nc2ccc(CN3CCOC(F)(C(F)(F)F)C3)cc2n2c(-c3ccccc3Cl)nnc12 (stereo not shown) [Compound B-114]
**A:** 24.5

**Q:** What does the data say about its IC50? Entry: CCOc1ccc(Cl)c(-c2nnc3c(C)nc4ccc(CN5CCC(O)CC5)cc4n23)c1 [Compound B-128]
**A:** 28.8

**Q:** What does the data say about its IC50? Entry: Cc1nc2ccccc2n2c(-c3cncc(Cl)c3)nnc12 [Compound B-183]
**A:** 316

###

molecular target: Rat recombinant PDE10A (rPDE10A2) (Rattus norvegicus); construct: made in house; host or cells: Sf9 insect cells (baculovirus); experiment: In vitro assay PDE10A (SPA, 3H-cAMP); type: biochemical; settings: -log IC50 expressed in mol/L; rPDE10A2, 60 nM cAMP; read-out: PIC50 PDE10 (converted)
MEASUREMENT_NAME: IC50 (nM)
I only need the number, in nM, no unit after it.

**Q:** What does the data say about its IC50? Entry: CCNC(=O)c1ccc2nc(C)c3nnc(-c4ccccc4F)n3c2c1
**A:** 155

**Q:** What does the data say about its IC50? Entry: Cc1nc2ccc(CN3CCN(C)CC3)cc2n2c(-c3ccccc3Cl)nnc12
**A:** 67.6

###

molecular target: Rat recombinant PDE10A (rPDE10A2) (Rattus norvegicus, UniProt Q9QYJ6); construct: made in house; host or cells: Sf9 insect cells (baculovirus); assay: In vitro assay PDE10A (SPA, 3H-cAMP); format: biochemical; conditions: read-out: PIC50 PDE10 (converted)
Sequence (Q9QYJ6 whole entry): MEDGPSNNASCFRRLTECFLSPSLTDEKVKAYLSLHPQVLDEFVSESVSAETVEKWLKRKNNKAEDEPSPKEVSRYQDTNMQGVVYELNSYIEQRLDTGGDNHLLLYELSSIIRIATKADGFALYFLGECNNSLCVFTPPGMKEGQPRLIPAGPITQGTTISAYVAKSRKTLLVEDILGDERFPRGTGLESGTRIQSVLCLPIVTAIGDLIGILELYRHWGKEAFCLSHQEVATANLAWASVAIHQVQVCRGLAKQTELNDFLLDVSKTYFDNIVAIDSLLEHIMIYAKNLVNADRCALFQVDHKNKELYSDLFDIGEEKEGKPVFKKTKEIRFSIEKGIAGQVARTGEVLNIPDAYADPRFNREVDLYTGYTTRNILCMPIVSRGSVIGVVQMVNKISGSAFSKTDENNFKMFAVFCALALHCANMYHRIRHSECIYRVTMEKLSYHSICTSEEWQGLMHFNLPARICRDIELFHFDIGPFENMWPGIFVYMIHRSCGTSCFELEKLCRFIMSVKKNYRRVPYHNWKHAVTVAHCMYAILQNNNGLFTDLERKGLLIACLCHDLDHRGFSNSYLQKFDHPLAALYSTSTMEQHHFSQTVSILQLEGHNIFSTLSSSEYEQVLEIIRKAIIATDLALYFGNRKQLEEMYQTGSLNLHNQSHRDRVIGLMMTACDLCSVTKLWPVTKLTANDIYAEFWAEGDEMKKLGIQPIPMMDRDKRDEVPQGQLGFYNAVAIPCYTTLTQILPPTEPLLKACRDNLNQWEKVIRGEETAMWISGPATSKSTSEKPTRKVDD
Give IC50 for every item shown.
I only need the number, in µM, no unit after it.

**Q:** What does the data say about its IC50? Entry: Cc1nc2ccc(OCCc3cccnc3)cc2n2c(-c3cc(OC(C)C)ccc3Cl)nnc12 [Compound B-146]
**A:** 1.02

**Q:** What does the data say about its IC50? Entry: Cc1nc2ccc(CO)cc2n2c(-c3ccccc3)nnc12 [Compound B-29]
**A:** 0.38

**Q:** What does the data say about its IC50? Entry: COCCNc1ccc2nc(C)c3nnc(-c4ccccc4Cl)n3c2c1 [Compound B-67]
**A:** 0.0155

**Q:** What does the data say about its IC50? Entry: Cc1nc2ccc(COc3ccccc3)cc2n2c(-c3ccccc3)nnc12 [Compound B-98]
**A:** 0.191

**Q:** What does the data say about its IC50? Entry: Cc1nc2ccc(C(=O)NCCc3ccccc3)cc2n2c(-c3ccccc3)nnc12 [Compound B-54]
**A:** 0.0933

**Q:** What does the data say about its IC50? Entry: CCCCOc1cncc(-c2nnc3c(C)nc4ccc(CNCC5CC5)cc4n23)c1 [Compound B-156]
**A:** 7.94

**Q:** What does the data say about its IC50? Entry: Cc1nc2ccc(Br)cc2n2c(-c3cccc(Cl)c3Cl)nnc12 [Compound B-166]
**A:** 0.282

**Q:** What does the data say about its IC50? Entry: Cc1nc2ccc(C(=O)NCc3ccccn3)cc2n2c(-c3cc(F)ccc3Cl)nnc12 [Compound B-39]
**A:** 0.024

**Q:** What does the data say about its IC50? Entry: COCC1CCN(Cc2ccc3nc(C)c4nnc(-c5ccccc5Cl)n4c3c2)C1 (stereo not shown) [Compound B-94]
**A:** 0.0646

**Q:** What does the data say about its IC50? Entry: COc1ccc2nc(C)c3nnc(-c4ccccc4Cl)n3c2c1 [Compound B-5]
**A:** 0.0251

**Q:** What does the data say about its IC50? Entry: Cc1nc2ccc(CN3CCOC(F)(C(F)(F)F)C3)cc2n2c(-c3ccccc3Cl)nnc12 (stereo not shown) [Compound B-114]
**A:** 0.105

**Q:** What does the data say about its IC50? Entry: CCCCOc1cncc(-c2nnc3c(C)nc4ccc(CNC5CCC5)cc4n23)c1 [Compound B-155]
**A:** 9.12

**Q:** What does the data say about its IC50? Entry: Cc1ncccc1-c1nnc2c(C)nc3ccc(Br)cc3n12 [Compound B-131]
**A:** 0.132

**Q:** What does the data say about its IC50? Entry: CCCOc1ccc(Cl)c(-c2nnc3c(C)nc4ccc(CNc5cccnc5)cc4n23)c1 [Compound B-138]
**A:** 0.708

**Q:** What does the data say about its IC50? Entry: CCOCc1ccc2nc(C)c3nnc(-c4ccccc4)n3c2c1 [Compound B-12]
**A:** 0.269

**Q:** What does the data say about its IC50? Entry: COc1ccc2nc(C)c3nnc(-c4ccccc4OC(F)(F)F)n3c2c1 [Compound B-164]
**A:** 2.51

**Q:** What does the data say about its IC50? Entry: COc1cncc(-c2nnc3c(C)nc4ccc(OC(F)(F)F)cc4n23)c1 [Compound B-165]
**A:** 0.501

**Q:** What does the data say about its IC50? Entry: CCCCOc1ccc(F)c(-c2nnc3c(C)nc4ccc(Br)cc4n23)c1 [Compound B-95]
**A:** 1.74

**Q:** What does the data say about its IC50? Entry: CCOc1ccc(Cl)c(-c2nnc3c(C)nc4ccc(CNc5cccnc5)cc4n23)c1 [Compound B-103]
**A:** 0.178

**Q:** What does the data say about its IC50? Entry: CCNC(c1ccc2nc(C)c3nnc(-c4ccccc4Cl)n3c2c1)C(F)(F)F (stereo not shown) [Compound B-64]
**A:** 0.0302

**Q:** What does the data say about its IC50? Entry: Cc1nc2ccc(Br)cc2n2c(-c3cncc(Cl)c3)nnc12 [Compound B-171]
**A:** 0.741

**Q:** What does the data say about its IC50? Entry: Cc1nc2ccc(CNc3cccnc3)cc2n2c(-c3cc(OC(C)C)ccc3Cl)nnc12 [Compound B-133]
**A:** 1.23

**Q:** What does the data say about its IC50? Entry: CCCCOc1ccc(Cl)c(-c2nnc3c(C)nc4ccc(CN5CCCC5)cc4n23)c1 [Compound B-79]
**A:** 1.91

**Q:** What does the data say about its IC50? Entry: Cc1nc2ccc(C(=O)NCCN3CCOCC3)cc2n2c(-c3ccccc3Cl)nnc12 [Compound B-36]
**A:** 0.0112

**Q:** What does the data say about its IC50? Entry: COc1cncc(-c2nnc3c(C)nc4ccc(Br)cc4n23)c1 [Compound B-124]
**A:** 0.355

**Q:** What does the data say about its IC50? Entry: Cc1nc2ccc(C(=O)NCc3ccccn3)cc2n2c(-c3ccc(Cl)cc3Cl)nnc12 [Compound B-108]
**A:** 0.0363

**Q:** What does the data say about its IC50? Entry: COc1ccc2nc(C)c3nnc(-c4cnccc4C)n3c2c1 [Compound B-173]
**A:** 0.977
